Consider the following molecules; for each one, report its Emax.
- study-system: UniProt P31389
- test-details: Antagonist activity at histamine H1 receptor in guinea pig ileum assessed as inhibition of histamine-induced contractions at 0.5 mg/ml relative to control
- Format: functional, tissue-based
Give bare numbers, in %.

Look over these answered cases.
molecule	unit-abbreviation	Emax
Cc1cc(=O)oc2ccc(OCC(O)CN3CCN(C)CC3)cc12 (stereo unspecified)	%	98
COc1ccccc1N1CCN(CC(O)COc2ccc3c(-c4ccccc4)cc(=O)oc3c2)CC1 (stereo unspecified)	%	96
Cc1cc(=O)oc2ccc(OCC(O)CN3CCCCC3)cc12 (stereo unspecified)	%	98
CCCNCC(O)COc1ccc2c(-c3ccccc3)cc(=O)oc2c1 (stereo unspecified)	%	100
O=c1cc(-c2ccccc2)c2ccc(OCC(O)CN3CCN(c4ccccc4)CC3)cc2o1 (stereo unspecified)	%	94

Continue with the molecule presented below.
Need Emax of COc1ccccc1N1CCN(CC(O)COc2ccc3oc(=O)cc(C)c3c2)CC1 (stereo unspecified) , thanks. 96

====

- study-system: Histamine H1 receptor (Cavia porcellus) (UniProt P31389)
- Sequence (P31389 whole entry): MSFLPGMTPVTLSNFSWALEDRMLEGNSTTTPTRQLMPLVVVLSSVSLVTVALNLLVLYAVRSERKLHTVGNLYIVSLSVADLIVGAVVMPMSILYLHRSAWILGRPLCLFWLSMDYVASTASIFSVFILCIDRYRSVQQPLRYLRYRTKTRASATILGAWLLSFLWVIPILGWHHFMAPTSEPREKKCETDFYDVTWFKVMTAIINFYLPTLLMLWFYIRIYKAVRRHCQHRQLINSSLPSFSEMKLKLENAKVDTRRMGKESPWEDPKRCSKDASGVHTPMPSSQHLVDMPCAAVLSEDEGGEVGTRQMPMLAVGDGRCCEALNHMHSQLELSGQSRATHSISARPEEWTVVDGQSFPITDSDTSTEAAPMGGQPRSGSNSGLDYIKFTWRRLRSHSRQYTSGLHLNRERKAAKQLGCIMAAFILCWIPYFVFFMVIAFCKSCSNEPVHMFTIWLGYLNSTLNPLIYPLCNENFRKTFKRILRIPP
- test-details: Antagonist activity at histamine H1 receptor in guinea pig ileum assessed as inhibition of histamine-induced contractions at 0.1 mg/ml relative to control
- Assay type: functional, tissue-based
observation-type: Emax (%)
One number for each entry, in %.

Look over these answered cases.
compound	Emax / %
CCCNCC(O)COc1ccc2c(-c3ccccc3)cc(=O)oc2c1 (configuration not stated)	100
COc1ccccc1N1CCN(CC(O)COc2ccc3oc(=O)cc(C)c3c2)CC1 (configuration not stated)	100
COc1ccccc1N1CCN(CC(O)COc2ccc3c(-c4ccccc4)cc(=O)oc3c2)CC1 (configuration not stated)	100

Batch: Emax for all items listed.
1. O=c1cc(-c2ccccc2)c2ccc(OCC(O)CN3CCN(c4ccccc4)CC3)cc2o1 (configuration not stated)
2. CCN(CC)CC(O)COc1ccc2c(-c3ccccc3)cc(=O)oc2c1 (configuration not stated)
3. Cc1cc(=O)oc2ccc(OCC(O)CN3CCN(c4ccccc4)CC3)cc12 (configuration not stated)

[100, 100, 100]

====

- study-system: UniProtKB P31389
- test-details: Antagonist activity at histamine H1 receptor in guinea pig ileum assessed as inhibition of histamine-induced contractions at 0.5 mg/ml
- Assay type: functional, tissue-based
observation-type: pEC50
Give bare numbers, as −log10 of the molar value.

compound	study-system	pEC50
COc1ccccc1N1CCN(CC(O)COc2ccc3oc(=O)cc(C)c3c2)CC1 (configuration not stated)	UniProtKB P31389	7.84
O=c1cc(-c2ccccc2)c2ccc(OCC(O)CN3CCN(c4ccccc4)CC3)cc2o1 (configuration not stated)	UniProtKB P31389	7.86
CCCNCC(O)COc1ccc2c(-c3ccccc3)cc(=O)oc2c1 (configuration not stated)	UniProtKB P31389	7.75
Cc1cc(=O)oc2ccc(OCC(O)CN3CCN(c4ccccc4)CC3)cc12 (configuration not stated)	UniProtKB P31389	7.80
O=c1cc(-c2ccccc2)c2ccc(OCC(O)CN3CCCCC3)cc2o1 (configuration not stated)	UniProtKB P31389	7.80
O=c1cc(-c2ccccc2)c2ccc(OCC(O)CN3CCOCC3)cc2o1 (configuration not stated)	UniProtKB P31389	7.79
COc1ccccc1N1CCN(CC(O)COc2ccc3c(-c4ccccc4)cc(=O)oc3c2)CC1 (configuration not stated)	UniProtKB P31389	7.89
Cc1cc(=O)oc2ccc(OCC(O)CN3CCN(C)CC3)cc12 (configuration not stated)	UniProtKB P31389	7.74

Batch: pEC50 for all items listed.
1. CCN(CC)CC(O)COc1ccc2oc(=O)cc(C)c2c1 (configuration not stated)
2. CCN(CC)CC(O)COc1ccc2c(-c3ccccc3)cc(=O)oc2c1 (configuration not stated)
3. Cc1cc(=O)oc2ccc(OCC(O)CN3CCCCC3)cc12 (configuration not stated)
4. O=c1cc(-c2ccccc2)c2ccc(OCC(O)CN3CCNCC3)cc2o1 (configuration not stated)

7.71
7.76
7.69
7.78
